Catalogue of Ki readings, one per entry.
target: purified human plasma kallikrein (Homo sapiens (Human)); experiment: Plasma kallikrein enzyme inhibition assay (chromogenic substrate S-2302); type: biochemical; conditions: measured at 25° C. (no asterisk)
Sequence (P03952 391-638): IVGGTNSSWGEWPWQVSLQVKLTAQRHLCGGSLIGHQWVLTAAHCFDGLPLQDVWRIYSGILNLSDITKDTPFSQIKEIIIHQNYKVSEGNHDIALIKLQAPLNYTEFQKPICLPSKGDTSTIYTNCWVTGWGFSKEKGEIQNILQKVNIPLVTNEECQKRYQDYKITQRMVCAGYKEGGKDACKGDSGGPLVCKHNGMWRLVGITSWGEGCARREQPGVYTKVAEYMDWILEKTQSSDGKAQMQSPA
Sequence (P03952 20-390 partner): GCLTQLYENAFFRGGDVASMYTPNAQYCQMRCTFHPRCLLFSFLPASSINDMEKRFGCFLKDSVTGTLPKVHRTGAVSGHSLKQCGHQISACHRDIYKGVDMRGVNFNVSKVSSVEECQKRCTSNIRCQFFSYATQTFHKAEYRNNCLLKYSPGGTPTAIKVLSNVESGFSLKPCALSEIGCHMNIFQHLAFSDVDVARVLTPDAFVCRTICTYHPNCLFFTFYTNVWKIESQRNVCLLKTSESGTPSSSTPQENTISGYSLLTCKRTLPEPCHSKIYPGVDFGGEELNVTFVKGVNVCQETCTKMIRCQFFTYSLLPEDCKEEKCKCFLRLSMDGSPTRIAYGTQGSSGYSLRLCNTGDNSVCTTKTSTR
Counter-ions that a name gives are not always drawn.

These recorded examples may help you get a feel for the data.
| compound | Ki |
| --- | --- |
| CC(CO)(CO)COC(C)(C)C1CCN(c2cccc3c2CCN(C(=O)c2cnn(-c4cccc(Cl)c4F)c2)C3C(=O)Nc2ccc(C(=O)O)cc2)CC1 (stereo not shown) [Example 225, TFA salt] | 48.8 nM |
| COC1CCN(c2cccc3c2CCN(C(=O)c2cnn(-c4cccc(Cl)c4F)c2)[C@H]3C(=O)Nc2ccc(C(=O)O)cc2)CC1 [Example 316, TFA salt] | 578 nM |
| CN1CCN(c2cccc3c2CCN(C(=O)C2CC(c4cccc(Cl)c4)=NO2)C3C(=O)Nc2ccc(C(=O)O)cc2)CC1 (stereo not shown) [Example 217, TFA salt] | 3.12 nM |
| CN(C)C1CCN(c2cccc3c2CCN(C(=O)c2cn(-c4cccc(Cl)c4F)nn2)C3C(=O)Nc2ccc(-c3cn[nH]c3)cc2)CC1 (stereo not shown) [Example 102, bis-TFA salt] | 1.39 nM |
| Cn1ccc(-c2cccc3c2CCN(C(=O)c2cn(-c4cccc(Cl)c4F)nn2)C3C(=O)Nc2ccc(C(=O)O)cc2)n1 (stereo not shown) | 16.2 nM |

Record summary for `O=C(O)c1ccc(NC(=O)[C@@H]2c3ccccc3CCN2C(=O)[C@H]2CC(c3cccc(Cl)c3F)=NO2)cc1` : reported Ki = 6.38 nM

Record summary for CN(C)C1CCN(c2cccc3c2CCN(C(=O)c2cnn(-c4cccc(Cl)c4F)c2)C3C(=O)Nc2ccc(C(=O)O)cc2)CC1 (stereo not shown) [Example 50, bis-TFA salt] : reported Ki = 4.94 nM

Record summary for CN1CCN(c2cccc3c2CCN(C(=O)c2cn(-c4cccc(Cl)c4F)cn2)C3C(=O)Nc2ccc(C(=O)O)cc2)CC1=O (racemic) [Example 284, TFA salt] : reported Ki = 6.25 nM

Record summary for COC1CCN(c2cccc3c2CCN(C(=O)c2ccnc(-c4cccc(Cl)c4F)c2)C3C(=O)Nc2ccc(C(=O)O)cc2)CC1 (stereo not shown) [Example 324, TFA salt] : reported Ki = 958 nM

Record summary for CCOC(=O)c1ccc(NC(=O)C2c3cccc(N4CCC(N5CCCC5)CC4)c3CCN2C(=O)c2cn(-c3cccc(Cl)c3F)nn2)cc1 (stereo not shown) [Example 219, TFA salt] : reported Ki = 1.96 nM
